- Measurement Protocol: soluble on expression in E. coli; label from the status in PepcDB or PDB records
Metric: soluble on expression in E. coli

# Sequence Record, Measured Result
rows = [
    ("SSQQRPARKLPSLLLDPTEETVRRRCRDPINVEGLLPSKIRINLEDNVQYVSMRKALKVKRPRFDVSLVYLTRKFMDLVRSAPGGILDLNKVATKLGVRKRRVYDITNVLDGIDLVEKKSKNHIRWIGSDLSNFGAVPQQKKLQEELSDLSAMEDALDELIKDCAQQLFELTDDKENERLAYVTYQDIHSIQAFHEQIVIAVKAPAETRLDVPAPREDSITVHIRSTNGPIDVYLCEVEQGQTSNKRSEGVGTSSSESTHPEGPEEEENPQQSEELLEVSN", "soluble"),
    ("LPPGWQSYLSPQGRRYYVNTTTNETTWERPSSS", "soluble"),
    ("MKWILLPILFVTLAVSGTALAQPSPTETVKKTVDDVIKIVSDKELKKPQNEKRRRQEIKRAIGTVFDSAEMAQRAMARHWRDRNAAEKKEFVDLFENLLENSYAGKIESYNQEKVVYLKEAIDGDYAEVRSKIVTARRDEYSLDYRLMLKGGKWVVYDIVIEGVSLVSNYRTQFNKIITNQGYAELVKKLRSKNKEISMPLEHHHHHH", "soluble"),
]
